These data points were gathered from PubChem BioAssay (NCI).

Test: NCI Yeast Anticancer Drug Screen. Data for the sgs1 mgt1 strain (AID 161);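 also: 0% = growth of cultures given vehicle only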
Settings: S. cerevisiae sgs1 mgt1 strain, hits give high values; at 50.0 µM unless noted
Compounds without any hit were thinned out: in the full panel of roughly 79,000, 15% have a hit.
readout.name: growth inhibition (%)
Write the value in % as a bare number.

Here is how some compounds turned out for growth inhibition.
| compound | growth inhibition [%] |
| --- | --- |
| CC(Sc1nc(N)nc2nc[nH]c12)C(=O)O (configuration not stated) | -11.3 |
| Cc1ccnc(NS(=O)(=O)c2ccc(N=[N+]=[N-])cc2)n1 | 1.9 |
| CC(=O)C(C)(CCN(C)C)c1ccccc1 (configuration not stated) | 7.45 |

Return value of growth inhibition for input CCCCOC(=O)c1cccc(C)c1 , no commentary.
-4.35

Return value of growth inhibition for input Cc1ccc(C(=O)/C=C/C(=O)c2ccc(C)cc2)cc1 , no commentary.
19.2

Return value of growth inhibition for input Cc1ccc(NC(=O)CC/C(CC(=O)c2ccc(F)cc2)=N\NC(=O)C(=O)NN)cc1C , no commentary.
-9.55

Return value of growth inhibition for input Cc1cn(C2CC3C(COC(c4ccccc4)N3O)O2)c(=O)[nH]c1=O (configuration not stated) , no commentary.
21.2

Return value of growth inhibition for input N=C(N)SCCCCCSC(=N)N , no commentary.
-4.9

Return value of growth inhibition for input O=C1CCCCC(=O)Nc2ccccc2N1 , no commentary.
-6.85

Return value of growth inhibition for input C[C@]12CCC(=O)C=C1CC[C@H]1[C@@H]3CC[C@](O)(C(=O)CO)[C@@]3(C)CC(=O)[C@@]12SC(N)=O , no commentary.
3.9

Return value of growth inhibition for input COc1ccc(Cl)cc1NC(=O)Oc1ccc(NC(C)=O)cc1 , no commentary.
-1.15

Return value of growth inhibition for input CCCCCCn1ncc2c(N)ncnc21 , no commentary.
-1.3
